test system: TAB165; assay: qHTS profiling for inhibitors of Plasmodium falciparum proliferation (AID 504749); also: nearly all actives have a fitted effect of over 60% in size; details: P. falciparum in erythrocytes, SYBR Green DNA, 72 h; series mostly up to 28.7 µM
Records with an inconclusive call do not appear. The source made the active and inactive calls. Calls follow the shape of the dose curve; as a rule, active = well fitted inhibition curve with a large enough effect; inconclusive = small, poorly fitted or top-dose-only effect; inactive = flat fitted curve, though single readings scatter.
Labels: yes (1) (active), no (0) (inactive)

COMPOUND	GROUP
CC(=O)c1ccc2c(c1)N(CCCN1CCN(CCO)CC1)c1ccccc1S2	yes (1)
O[C@@H]([C@H](O)[C@H](O)CBr)[C@H](O)CBr	no (0)
CCCCCCCCCCCCCCCCCCCCCC(=O)Nc1ccn([C@@H]2O[C@H](CO)[C@@H](O)[C@@H]2O)c(=O)n1	no (0)
COc1cc2c(cc1OC)[C@@H](Cc1cc(OC)c(OC)c(OC)c1)[N+](C)(CCCOC(=O)CC/C=C/CCC(=O)OCCC[N+]1(C)CCc3cc(OC)c(OC)cc3[C@H]1Cc1cc(OC)c(OC)c(OC)c1)CC2 (stereo partly specified)	no (0)
CO	no (0)
CCCCCCCCCCCCCCCCOCCOCCOCCOCCOCCOCCOCCOCCOCCOCCOCCOCCOCCOCCOCCOCCOCCOCCOCCOCCO	yes (1)

* * *

Listing of recorded activity, negative = cell killing by entry.
Assay: Drug repurposing screens with cells derived from glioblastoma tumor samples (AID 1345199); also: % is scaled to controls: 0 for no effect and ±100 for the full control effect; nearly all actives have a fitted effect of over 40% in size
Details: GBM patient neurospheres viability, ATP luminescence, 48 h; at 21.2 µM (top of the series); tumour line B
Procedure: CD133+ cells were isolated from GBM patient biopsies and cultured as neurospheres. Neurospheres from four patients were used to screen the NCATS pharmaceutical collection (NPC) library of approved drugs and bioactive compounds. […] The neurospheres were incubated with drugs for 48 hours in 1536-well format, then assayed with an ATP content cell viability assay. […]
Inconclusive results are not listed.

COMPOUND	activity, negative = cell killing [%]
CCCC1C(=O)N2C(N(C)C)=Nc3ccc(C)cc3N2C1=O (stereo not given)	-20.8
CNCC(O)c1ccc(OC(=O)C(C)(C)C)c(OC(=O)C(C)(C)C)c1 (stereo not given)	-16.5
O=C(O)CCC(=O)c1ccc(-c2ccccc2)cc1	-10
OCCN1CCN(CC/C=C2/c3ccccc3Sc3ccc(Cl)cc32)CC1	-19.4
NC[C@H]1O[C@H](O[C@H]2[C@H](O)[C@@H](O[C@H]3O[C@H](CO)[C@@H](O)[C@H](N)[C@H]3O)[C@H](N)C[C@@H]2N)[C@H](O)[C@@H](O)[C@@H]1O	-14.2

* * *

tested on: CP286; assay: qHTS profiling for inhibitors of Plasmodium falciparum proliferation (AID 504749); also: nearly all actives have a fitted effect of over 60% in size; settings: P. falciparum in erythrocytes, SYBR Green DNA, 72 h; series mostly up to 28.7 µM
Inconclusive results are not listed. Activity calls are given as the source filed them. The call rests on the fitted dose curve; in most records, active means well fitted inhibition curve with a large enough effect; inconclusive means small, poorly fitted or top-dose-only effect; inactive means flat fitted curve, though single readings scatter.
Labels: t for active, f for inactive

MOLECULE	ASSAY TARGET	GROUP
O=C(O)CCC/C=C\C[C@@H]1[C@@H](/C=C/[C@@H](O)COc2cccc(C(F)(F)F)c2)[C@H](O)C[C@@H]1O	CP286	f
N=C(N)n1cccn1	CP286	f
C[C@H]1O[C@@H](O[C@H]2[C@@H](O)C[C@H](O[C@H]3[C@@H](O)C[C@H](O[C@H]4CC[C@@]5(C)[C@H](CC[C@@H]6[C@@H]5C[C@@H](O)[C@]5(C)[C@@H](C7=CC(=O)OC7)CC[C@]65O)C4)O[C@@H]3C)O[C@@H]2C)C[C@H](O)[C@@H]1O	CP286	f
Cc1cc(-c2ccc(N=Nc3c(S(=O)(=O)O)cc4cc(S(=O)(=O)O)cc(N)c4c3O)c(C)c2)ccc1N=Nc1c(S(=O)(=O)O)cc2cc(S(=O)(=O)O)cc(N)c2c1O	CP286	f
COC1=C(OC)C(=O)C(C/C=C(\C)CC/C=C(\C)CC/C=C(\C)CC/C=C(\C)CC/C=C(\C)CC/C=C(\C)CC/C=C(\C)CC/C=C(\C)CC/C=C(\C)CCC=C(C)C)=C(C)C1=O	CP286	f
CC[C@H]1OC(=O)[C@H](C)[C@@H](O[C@H]2C[C@@](C)(OC)[C@@H](O)[C@H](C)O2)[C@H](C)[C@@H](O[C@@H]2O[C@H](C)C[C@H](N(C)C)[C@H]2O)[C@](C)(O)C[C@@H](C)CN(C)[C@H](C)[C@@H](O)[C@]1(C)O	CP286	t
CC1CCCCN1CCCOC(=O)c1ccccc1 (stereo not drawn)	CP286	f
O=P(O)(O)OP(=O)(O)OP(=O)(O)O	CP286	f
CC1=CC(=C(c2ccc(N)cc2)c2ccc(N)cc2)C=CC1=N	CP286	t
FC(F)(F)C(F)(F)C(F)(F)C(F)(F)C(F)(F)F	CP286	f
NCCN	CP286	f
O=C(O)C1=C(CSc2nnnn2CS(=O)(=O)O)CS[C@@H]2[C@H](NC(=O)[C@H](O)c3ccccc3)C(=O)N12	CP286	f
OC/C=C/c1ccccc1	CP286	f
CCCc1ccc(C(=O)O)cc1	CP286	f
C=Cc1ccc(S(=O)(=O)O)cc1	CP286	f
CCCCO	CP286	f
COc1ccc(/C=C/C(=O)O)cc1	CP286	f
CC12CCC(C[N+](C)(CCC[N+](C)(C)C)C1)C2(C)C (stereo not drawn)	CP286	f
NC(=O)[C@@H]1CCCN1C(=O)[C@H](Cc1cnc[nH]1)NC(=O)[C@@H]1CCC(=O)N1	CP286	f
CCCCC(CC)COS(=O)(=O)O (stereo not drawn)	CP286	f
CCOC(C)OCC	CP286	f
O=C(O)COc1ccccc1/C=N/NC(=O)c1ccncc1	CP286	f
CN1C(=O)OC(C)(C)C1=O	CP286	f
CC(C)CCCCCCc1ccc(O)cc1	CP286	f
CCN(CC)CCOc1ccccc1OC	CP286	f
c1ccc(-n2cnnn2)cc1	CP286	f
CC(C)CCCC(C)NC(C)C (stereo not drawn)	CP286	f
CC(C)CCC[C@@H](C)[C@H]1CC[C@H]2[C@@H]3CC[C@@H]4C[C@H](O)CC[C@]4(C)[C@H]3CC[C@]12C	CP286	f
CC(C)(Oc1ccc(C2CCCc3ccccc32)cc1)C(=O)O (stereo not drawn)	CP286	f
C=CC(=O)O	CP286	f
NC(=S)NS(=O)(=O)c1ccc(N)cc1	CP286	f
COc1ccc(C(=O)CCC(=O)O)c2ccccc12	CP286	f
[O]=[Bi][O]C(=O)[O][Bi]=[O]	CP286	f

* * *

tested on: N140; test: qHTS profiling for inhibitors of Plasmodium falciparum proliferation (AID 504749); also: nearly all actives have a fitted effect of over 60% in size; conditions: P. falciparum in erythrocytes, SYBR Green DNA, 72 h; series mostly up to 28.7 µM
Results filed as inconclusive are left out. Active and inactive are the calls of the source. The call rests on the fitted dose curve; in most records, active means well fitted inhibition curve with a large enough effect; inconclusive means small, poorly fitted or top-dose-only effect; inactive means flat fitted curve, though single readings scatter.
Labels: T (active), F (inactive)

MOLECULE	GROUP
S=C1SCN(Cc2ccccc2)CN1Cc1ccccc1	F
Cc1c(C)c2c(c(C)c1OC(=O)CCC(=O)O)CC[C@@](C)(CCC[C@H](C)CCC[C@H](C)CCCC(C)C)O2	F
CCOC(=O)[C@@H](N)CS	F
CCN(CC)CCOc1ccc2nc(N(C)C)sc2c1	F
Cc1cc(C(=O)NCCc2ccc(S(=O)(=O)NC(=O)NN3CCCCCC3)cc2)no1	F
Cn1cc(NC(=O)c2cc(NC(=O)c3cc(NC=O)cn3C)cn2C)cc1C(=O)NCCC(=N)N	T
O=C(OC1C[C@@H]2CC3C[C@H](C1)N2CC3=O)c1c[nH]c2ccccc12 (some centres not stated)	F

* * *

system: N140; experiment: qHTS profiling for inhibitors of Plasmodium falciparum proliferation (AID 504749); also: nearly all actives have a fitted effect of over 60% in size; conditions: P. falciparum in erythrocytes, SYBR Green DNA, 72 h; series mostly up to 28.7 µM
Inconclusive results are not listed. Activity calls are given as the source filed them. Calls follow the shape of the dose curve; as a rule, active = well fitted inhibition curve with a large enough effect; inconclusive = small, poorly fitted or top-dose-only effect; inactive = flat fitted curve, though single readings scatter.
Labels: class 1 (active), class 0 (inactive)

COMPOUND STRING	GROUP
CCSc1ccc2c(c1)N(CCCN1CCN(C)CC1)c1ccccc1S2	class 0
CCc1ncnc2cc(OC)c(OC)cc12	class 0
NCCO/C=C/[C@H](N)C(=O)O	class 0
CN(C)C=Nc1c(I)cc(I)c(CCC(=O)O)c1I	class 0
CCOC(=O)c1c[nH]c2cc(OCC(C)C)c(OCC(C)C)cc2c1=O	class 1

* * *

tested on: CP185; experiment: qHTS profiling for inhibitors of Plasmodium falciparum proliferation (AID 504749); also: nearly all actives have a fitted effect of over 60% in size; conditions: P. falciparum in erythrocytes, SYBR Green DNA, 72 h; series mostly up to 28.7 µM
Results filed as inconclusive are left out. The source made the active and inactive calls. The call rests on the fitted dose curve; in most records, active means well fitted inhibition curve with a large enough effect; inconclusive means small, poorly fitted or top-dose-only effect; inactive means flat fitted curve, though single readings scatter.
Labels: active, inactive

COMPOUND STRING	ASSAY TARGET	GROUP
O=C(O)COc1ccc(CCNS(=O)(=O)c2ccccc2)s1	CP185	inactive
O=C(O)CCC/C=C\C[C@@H]1[C@@H](/C=C/[C@@H](O)COc2cccc(Cl)c2)[C@H](O)C[C@@H]1O	CP185	inactive
O[C@@H]([C@H](O)[C@H](O)CBr)[C@H](O)CBr	CP185	inactive
Cc1ccc(S(=O)(=O)NCl)cc1	CP185	inactive
O=C(O)CCCC/C=C(\c1ccccc1)c1cccnc1	CP185	inactive
NCC[C@H](O)C(=O)N[C@@H]1C[C@H](N)[C@@H](O[C@H]2O[C@H](CN)CC[C@H]2N)[C@H](O)[C@H]1O[C@H]1O[C@H](CO)[C@@H](O)[C@H](N)[C@H]1O	CP185	inactive
N=C(N)c1ccc(/C=C/c2ccc(C(=N)N)cc2O)cc1	CP185	active
CCSc1ccc2c(c1)N(CCCN1CCN(C)CC1)c1ccccc1S2	CP185	inactive
C=Cc1ccc(S(=O)(=O)O)cc1	CP185	inactive
CC(/C=C/C=C(\C)C(=O)O[C@@H]1O[C@H](CO[C@@H]2O[C@H](CO)[C@@H](O)[C@H](O)[C@H]2O)[C@@H](O)[C@H](O)[C@H]1O)=C\C=C\C=C(C)\C=C\C=C(/C)C(=O)O[C@@H]1O[C@H](CO[C@@H]2O[C@H](CO)[C@@H](O)[C@H](O)[C@H]2O)[C@@H](O)[C@H](O)[C@H]1O	CP185	inactive
